Recorded GI50 values for a group of compounds are listed next.
target: HER2 (A775_G776insYVMA) expressing Ba/F3 stable cell line (Homo sapiens, UniProt P04626, DUP772-775, cells depend on it)
Sequence (P04626 with tags, fused parts or gaps DUP772-775): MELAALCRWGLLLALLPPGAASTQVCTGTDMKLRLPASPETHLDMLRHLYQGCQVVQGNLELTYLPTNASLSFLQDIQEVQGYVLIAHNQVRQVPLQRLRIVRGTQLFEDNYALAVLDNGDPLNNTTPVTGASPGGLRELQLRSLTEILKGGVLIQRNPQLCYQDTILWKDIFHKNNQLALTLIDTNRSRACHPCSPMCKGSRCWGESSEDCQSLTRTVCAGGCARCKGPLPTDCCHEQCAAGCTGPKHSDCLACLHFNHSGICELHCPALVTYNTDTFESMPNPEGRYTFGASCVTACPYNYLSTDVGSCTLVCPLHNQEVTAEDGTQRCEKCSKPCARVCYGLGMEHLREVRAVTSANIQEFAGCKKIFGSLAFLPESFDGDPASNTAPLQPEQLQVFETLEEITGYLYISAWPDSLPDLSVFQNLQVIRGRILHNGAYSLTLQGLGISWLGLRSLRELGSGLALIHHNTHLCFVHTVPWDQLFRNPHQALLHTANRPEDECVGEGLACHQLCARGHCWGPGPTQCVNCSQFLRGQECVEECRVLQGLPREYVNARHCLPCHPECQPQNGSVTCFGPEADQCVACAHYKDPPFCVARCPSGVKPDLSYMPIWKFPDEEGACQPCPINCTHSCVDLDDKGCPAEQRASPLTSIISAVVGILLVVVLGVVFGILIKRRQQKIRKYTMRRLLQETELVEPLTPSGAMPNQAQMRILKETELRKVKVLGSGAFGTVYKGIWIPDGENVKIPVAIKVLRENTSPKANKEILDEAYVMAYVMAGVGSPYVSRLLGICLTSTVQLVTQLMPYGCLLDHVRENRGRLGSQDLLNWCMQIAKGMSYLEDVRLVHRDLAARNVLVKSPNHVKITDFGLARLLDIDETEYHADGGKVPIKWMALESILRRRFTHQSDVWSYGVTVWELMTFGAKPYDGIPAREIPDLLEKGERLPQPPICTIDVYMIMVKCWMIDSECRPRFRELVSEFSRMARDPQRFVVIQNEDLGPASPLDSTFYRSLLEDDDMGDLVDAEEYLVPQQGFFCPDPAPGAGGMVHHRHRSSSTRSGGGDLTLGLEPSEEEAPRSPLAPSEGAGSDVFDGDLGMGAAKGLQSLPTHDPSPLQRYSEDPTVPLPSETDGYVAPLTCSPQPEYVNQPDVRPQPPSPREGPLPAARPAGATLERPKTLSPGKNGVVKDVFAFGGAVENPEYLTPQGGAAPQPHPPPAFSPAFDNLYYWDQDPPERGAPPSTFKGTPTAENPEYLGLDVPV
assay_protocol: Cellular proliferation (Alamar Blue) assay, HER2 A775_G776insYVMA Ba/F3
Type: cell-based
assay_conditions: 72 hr, read-out: YVMA IC50
Number only, in nM; omit the unit.

The following compounds have reported results that may help.
>  <compound>
CN(C)C/C=C/C(=O)Nc1ccc(F)c(Nc2nc(Nc3cnn(CCO)c3)ncc2Cl)c1

>  <GI50 (nM)>
1700

$$$$
>  <compound>
C=CC(=O)Nc1ccc(F)c(Nc2nc(Nc3cnn(CCO)c3)ncc2Cl)c1

>  <GI50 (nM)>
543

$$$$
>  <compound>
C=CC(=O)Nc1ccc(F)c(Oc2nc(Nc3cnn(C)c3)ncc2Cl)c1

>  <GI50 (nM)>
1690

$$$$
>  <compound>
C=CC(=O)Nc1ccc(F)c(Nc2nc(Nc3cn(C)nc3Cl)ncc2-c2ccccc2F)c1

>  <GI50 (nM)>
465

$$$$
>  <compound>
Cn1cc(Nc2ncc(Cl)c(Nc3cc(NC(=O)/C=C/CF)ccc3F)n2)cn1

>  <GI50 (nM)>
3220

$$$$

// query Retrieve GI50 measured for `C=CC(=O)Nc1ccc(F)c(Nc2nc(Nc3cn(C)nc3F)ncc2-c2ccc(C(F)(F)F)cc2)c1` and print it.
// result 413

// query Look up and state reported GI50 for `C=CC(=O)Nc1ccc(F)c(Nc2nc(Nc3cnn(C)c3)ncc2-c2cncc(OC(F)F)c2)c1`
// result 101

// query Supply measured GI50 of `C=CC(=O)Nc1cccc(Oc2nc(Nc3cnn(C)c3)ncc2-c2ccc(C(F)(F)F)nc2)c1` in your reply.
// result 300

// query Answer with reported GI50 of `C=CC(=O)Nc1cccc(Oc2nc(Nc3cnn(C)c3)ncc2-c2cncc(F)c2)c1`
// result 60

// query Look up GI50 of `C=C(C)C(=O)Nc1ccc(F)c(Nc2nc(Nc3cnn(C)c3)ncc2Cl)c1` and report it.
// result 7030

----------
target: EGFR(D770_N771insSVD) expressing Ba/F3 stable cell line (Homo sapiens, UniProt P00533, DUP768-770, cells depend on it)
Sequence (P00533 with tags, fused parts or gaps DUP768-770): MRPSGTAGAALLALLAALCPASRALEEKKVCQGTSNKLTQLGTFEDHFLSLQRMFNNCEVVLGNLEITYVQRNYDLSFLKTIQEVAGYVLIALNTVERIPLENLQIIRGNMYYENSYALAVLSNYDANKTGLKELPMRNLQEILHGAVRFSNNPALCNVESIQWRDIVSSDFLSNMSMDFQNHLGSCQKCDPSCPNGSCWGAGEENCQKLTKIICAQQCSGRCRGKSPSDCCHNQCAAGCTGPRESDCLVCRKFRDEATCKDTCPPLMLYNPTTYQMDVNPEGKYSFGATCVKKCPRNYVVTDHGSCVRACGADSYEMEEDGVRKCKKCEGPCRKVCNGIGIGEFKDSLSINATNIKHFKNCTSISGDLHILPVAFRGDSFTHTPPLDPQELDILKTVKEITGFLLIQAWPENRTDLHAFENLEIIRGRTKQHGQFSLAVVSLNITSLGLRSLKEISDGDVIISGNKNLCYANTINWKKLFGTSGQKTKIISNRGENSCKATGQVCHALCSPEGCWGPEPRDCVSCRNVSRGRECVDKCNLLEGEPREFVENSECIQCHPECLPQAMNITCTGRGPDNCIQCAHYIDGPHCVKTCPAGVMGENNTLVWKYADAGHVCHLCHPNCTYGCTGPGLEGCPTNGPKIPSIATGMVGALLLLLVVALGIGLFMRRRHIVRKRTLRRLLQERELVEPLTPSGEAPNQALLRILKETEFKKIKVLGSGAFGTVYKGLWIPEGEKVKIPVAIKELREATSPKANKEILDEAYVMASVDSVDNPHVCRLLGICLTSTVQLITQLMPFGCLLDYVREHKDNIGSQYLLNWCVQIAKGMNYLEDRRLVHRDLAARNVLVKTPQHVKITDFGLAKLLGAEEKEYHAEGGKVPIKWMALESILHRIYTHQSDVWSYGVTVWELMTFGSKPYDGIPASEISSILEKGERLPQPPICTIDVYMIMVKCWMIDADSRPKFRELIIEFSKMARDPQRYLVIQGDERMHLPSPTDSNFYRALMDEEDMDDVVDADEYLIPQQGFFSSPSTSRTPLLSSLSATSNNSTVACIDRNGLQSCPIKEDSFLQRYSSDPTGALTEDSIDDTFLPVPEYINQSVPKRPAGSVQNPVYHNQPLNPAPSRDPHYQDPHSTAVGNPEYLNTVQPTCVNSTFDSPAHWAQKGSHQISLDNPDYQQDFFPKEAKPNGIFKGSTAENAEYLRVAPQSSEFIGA
assay_protocol: Cellular proliferation (Alamar Blue) assay, EGFR D770_N771insSVD Ba/F3
Type: cell-based
assay_conditions: 72 hr, read-out: D770 IC50
Counter-ions that a name gives are not always drawn.
quantity_name: log10 GI50 (log10 of the value in nM)
Please keep in mind that the values are log10 of GI50 expressed in nM.

Recorded results for 3 molecules are shown here.
>  <molecule>
C=CC(=O)Nc1ccc(F)c(Nc2nc(Nc3cnn(C)c3)ncc2-c2ccnc(C(F)(F)F)c2)c1

>  <log10 GI50>
1.79

$$$$
>  <molecule>
C=CC(=O)Nc1ccc(F)c(Nc2nc(Nc3cnn(C4COC4)c3)ncc2-c2ccc(C(F)(F)F)cc2)c1

>  <log10 GI50>
2.06

$$$$
>  <molecule>
C=CC(=O)Nc1ccc(F)c(Nc2nc(Nc3cnn(C)c3)ncc2-c2ccc3nccn3c2)c1 [Compound 133, trifluoroacetate]

>  <log10 GI50>
2.47

$$$$

// query Specify reported log10 GI50 for the molecule shown: `C=CC(=O)Nc1cc(Nc2nc(Nc3cnn(C)c3)ncc2-c2ccc(C(F)(F)F)cc2)c(F)cn1`
// result 3.10

// query Read the entry `C=CC(=O)Nc1ccc(F)c(Nc2cc(Nc3cnn(C)c3)ncc2-c2ccc(C(F)(F)F)cc2)c1` and write its reported log10 GI50.
// result 3.45
